# experimental_target: IKZF2 (Homo sapiens, UniProt Q96SW2+Q9UKS7)
# Construct: CRISPR/Cas9—mediated insertion of the HiBiT peptide tag (Promega™) to the N-terminus of the IKZF2 gene locus; endogenous in cells; host or cells: MOLT4 cells, with CRISPR/Cas9 knock-in of HiBiT at the endogenous IKZF2 locus
# Sequence (Q9UKS7 whole entry): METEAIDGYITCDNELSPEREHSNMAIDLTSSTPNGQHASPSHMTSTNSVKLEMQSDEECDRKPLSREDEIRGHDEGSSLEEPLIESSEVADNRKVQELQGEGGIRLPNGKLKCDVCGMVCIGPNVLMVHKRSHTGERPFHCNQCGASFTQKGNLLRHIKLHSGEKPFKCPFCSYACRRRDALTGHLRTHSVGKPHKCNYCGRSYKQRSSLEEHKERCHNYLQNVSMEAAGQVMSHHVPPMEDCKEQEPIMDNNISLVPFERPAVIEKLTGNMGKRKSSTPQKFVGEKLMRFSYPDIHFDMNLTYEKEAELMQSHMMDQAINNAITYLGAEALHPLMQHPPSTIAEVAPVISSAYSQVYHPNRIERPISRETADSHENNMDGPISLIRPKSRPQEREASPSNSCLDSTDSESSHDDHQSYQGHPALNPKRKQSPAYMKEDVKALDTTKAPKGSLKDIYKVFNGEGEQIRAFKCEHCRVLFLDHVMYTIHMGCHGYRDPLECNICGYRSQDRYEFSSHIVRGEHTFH
# Sequence (Q96SW2 whole entry): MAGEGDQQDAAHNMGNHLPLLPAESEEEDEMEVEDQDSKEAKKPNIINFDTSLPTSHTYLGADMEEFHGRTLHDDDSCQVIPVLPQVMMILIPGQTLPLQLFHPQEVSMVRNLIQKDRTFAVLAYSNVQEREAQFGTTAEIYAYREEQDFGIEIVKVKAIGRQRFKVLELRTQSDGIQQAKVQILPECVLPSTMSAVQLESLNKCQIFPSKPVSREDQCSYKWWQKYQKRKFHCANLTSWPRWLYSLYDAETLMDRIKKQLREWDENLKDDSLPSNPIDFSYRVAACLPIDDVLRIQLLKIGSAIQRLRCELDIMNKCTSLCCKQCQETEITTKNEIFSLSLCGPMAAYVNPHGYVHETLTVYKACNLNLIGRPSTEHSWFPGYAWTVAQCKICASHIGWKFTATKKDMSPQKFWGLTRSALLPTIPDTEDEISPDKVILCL
# Sequence (Q16531 whole entry partner): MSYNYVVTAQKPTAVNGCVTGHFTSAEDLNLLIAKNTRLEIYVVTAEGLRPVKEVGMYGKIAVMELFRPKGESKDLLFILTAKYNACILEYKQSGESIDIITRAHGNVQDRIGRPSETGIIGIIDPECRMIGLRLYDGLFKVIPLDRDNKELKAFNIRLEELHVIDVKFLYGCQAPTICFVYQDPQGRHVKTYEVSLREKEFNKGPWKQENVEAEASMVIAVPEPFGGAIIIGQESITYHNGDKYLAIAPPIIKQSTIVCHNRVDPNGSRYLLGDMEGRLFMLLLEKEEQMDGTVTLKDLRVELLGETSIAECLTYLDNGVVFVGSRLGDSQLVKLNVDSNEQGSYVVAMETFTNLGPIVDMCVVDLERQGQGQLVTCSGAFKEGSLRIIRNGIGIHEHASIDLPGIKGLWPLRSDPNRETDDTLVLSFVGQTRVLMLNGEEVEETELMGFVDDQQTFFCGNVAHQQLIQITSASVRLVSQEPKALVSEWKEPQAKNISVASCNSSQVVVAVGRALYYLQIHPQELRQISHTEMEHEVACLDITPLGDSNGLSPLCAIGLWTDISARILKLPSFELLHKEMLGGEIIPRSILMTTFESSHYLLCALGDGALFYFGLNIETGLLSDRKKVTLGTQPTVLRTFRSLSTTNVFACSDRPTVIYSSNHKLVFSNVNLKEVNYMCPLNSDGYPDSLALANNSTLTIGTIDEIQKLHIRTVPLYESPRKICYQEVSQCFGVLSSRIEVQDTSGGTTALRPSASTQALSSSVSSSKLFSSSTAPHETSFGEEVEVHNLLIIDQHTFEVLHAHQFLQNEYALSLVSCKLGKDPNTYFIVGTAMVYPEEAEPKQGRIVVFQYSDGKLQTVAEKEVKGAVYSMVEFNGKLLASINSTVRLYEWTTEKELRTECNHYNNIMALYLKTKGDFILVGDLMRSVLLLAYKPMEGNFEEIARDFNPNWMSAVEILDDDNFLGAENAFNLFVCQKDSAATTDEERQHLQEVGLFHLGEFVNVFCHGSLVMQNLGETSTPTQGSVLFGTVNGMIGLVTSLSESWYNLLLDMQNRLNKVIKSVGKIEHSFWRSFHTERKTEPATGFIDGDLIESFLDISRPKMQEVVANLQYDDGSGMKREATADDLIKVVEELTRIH
# assay_remarks: HiBit-IKZF2 assay (HiBiT-Helios degradation in MOLT4 cells)
# Assay type: cell-based
# test_settings: MOLT-4, extent of degradation from highest to lowest concentration, 10 μM to 0.00026 μM, read-out: Dmax
readout_name: Dmax

O=C1CCC(N2Cc3cc(C4(O)CCN(Cc5ccccc5Oc5ccccc5)CC4)ccc3C2=O)C(=O)N1 (centres unmarked) = > 70%
O=C1CCC(N2Cc3cc(C4CCN(Cc5cccc(S(=O)(=O)N6CC7C(C6)C7(F)F)c5)CC4)ccc3C2=O)C(=O)N1 (centres unmarked) = 50 to 70%
O=C1CCC(N2Cc3cc(C4CCN(Cc5ccc6c(c5)C(=O)N(c5ncccn5)C6)CC4)ccc3C2=O)C(=O)N1 (centres unmarked) = 30 to 50%
N#Cc1ccc(CN2CCC(O)(c3ccc4c(c3)CN(C3CCC(=O)NC3=O)C4=O)CC2)cc1 (centres unmarked) = > 70%
O=C1CCC(N2Cc3cc(C4(O)CCN(Cc5ccc(F)c(Nc6ccccc6)n5)CC4)ccc3C2=O)C(=O)N1 (centres unmarked) = 50 to 70%
O=C1CCC(N2Cc3cc(C4(O)CCN(Cc5ccc6c(c5)C(=O)N(c5ccns5)C6)CC4)ccc3C2=O)C(=O)N1 (centres unmarked) = > 70%
O=C1CCC(N2Cc3cc(C4CCN(Cc5cnc(Nc6ccccc6)o5)CC4)ccc3C2=O)C(=O)N1 (centres unmarked) = 50 to 70%
O=C1CCC(N2Cc3cc(C4CCN(Cc5ccc(F)c(Nc6ccccc6)n5)CC4)ccc3C2=O)C(=O)N1 (centres unmarked) = 50 to 70%
O=C1CCC(N2Cc3cc(C4CCN(Cc5cccc(N6Cc7ccccc7S6(=O)=O)c5)CC4)ccc3C2=O)C(=O)N1 (centres unmarked) = 50 to 70%
Cc1ccc(C)n1-c1ccc(CN2CCC(O)(c3ccc4c(c3)CN(C3CCC(=O)NC3=O)C4=O)CC2)cc1 (centres unmarked) = > 70%
O=C1CCC(N2Cc3cc(C4CCN(Cc5cccc(Nc6ncccn6)c5)CC4)ccc3C2=O)C(=O)N1 (centres unmarked) = 50 to 70%
O=C1CCC(N2Cc3cc(C4CCN(Cc5ccc6c(c5)C(=O)N(c5cccc(O)c5)C6)CC4)ccc3C2=O)C(=O)N1 (centres unmarked) = > 70%
O=C1CCC(N2Cc3cc(C4CCN(Cc5cccc(Nc6ccccn6)c5)CC4)ccc3C2=O)C(=O)N1 (centres unmarked) = 50 to 70%
O=C1CCC(N2Cc3cc(C4CCN(Cc5cccc(S(=O)(=O)N6C7CCC6COC7)c5)CC4)ccc3C2=O)C(=O)N1 (centres unmarked) = 50 to 70%

====

# experimental_target: IKZF2 (Homo sapiens, UniProt Q96SW2+Q9UKS7)
# Construct: CRISPR/Cas9—mediated insertion of the HiBiT peptide tag (Promega™) to the N-terminus of the IKZF2 gene locus; endogenous in cells; host or cells: MOLT4 cells, with CRISPR/Cas9 knock-in of HiBiT at the endogenous IKZF2 locus
# assay_remarks: HiBit-IKZF2 assay (HiBiT-Helios degradation in MOLT4 cells)
# Format: cell-based
# test_settings: concentration at which 50% of HiBiT-Helios degradation was achieved
# Source text: The HiBiT protein tagging system was applied to MOLT4 cells via a CRISPR/Cas9—mediated insertion of the HiBiT peptide tag (Promega™) to the N-terminus of the IKZF2 gene locus (Neon™ Transfection System). […] At the indicated timepoints, the Nano-Glo® HiBiT Lytic Detection System (Promega™) was utilized for detecting bioluminescence of the HiBiT tag in treated cells: abundance of the tag is proportionate to the level of luminescence. […]
DC50 for assorted compounds
readout_name: DC50

O=C1CCC(N2Cc3cc(C4CCN(Cc5ccc6c(c5)C(=O)N(c5cccc(F)c5)C6)CC4)ccc3C2=O)C(=O)N1 (stereo not shown) = < 10 nM
O=C1CCC(N2Cc3cc(C4CCN(Cc5ccc(Nc6ccccc6)nc5)CC4)ccc3C2=O)C(=O)N1 (stereo not shown) = 10 to 30 nM
O=C1CCC(N2Cc3cc(C4(O)CCN(Cc5ccccc5OC(F)F)CC4)ccc3C2=O)C(=O)N1 (stereo not shown) = < 10 nM
O=C1CCC(N2Cc3cc(C4CCN(Cc5cccc(S(=O)(=O)N6C7CCC6COC7)c5)CC4)ccc3C2=O)C(=O)N1 (stereo not shown) = < 10 nM
O=C1CCC(N2Cc3cc(C4(O)CCN(Cc5cccc6scnc56)CC4)ccc3C2=O)C(=O)N1 (stereo not shown) = < 10 nM
O=C1CCC(N2Cc3cc(C4(O)CCN(Cc5ccccc5)C4)ccc3C2=O)C(=O)N1 (stereo not shown) = 30 to 150 nM
O=C1CCC(N2Cc3cc(C4(O)CCN(Cc5ccc6ncsc6c5)CC4)ccc3C2=O)C(=O)N1 (stereo not shown) = < 10 nM
